# system_tested: NT-3 growth factor receptor (Homo sapiens) (UniProt Q16288);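 further: mean TRKC inhibition from the GSK PKIS kinase inhibitor set, with assays run by Nanosyn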
# Sequence (Q16288 32-839 limits assumed): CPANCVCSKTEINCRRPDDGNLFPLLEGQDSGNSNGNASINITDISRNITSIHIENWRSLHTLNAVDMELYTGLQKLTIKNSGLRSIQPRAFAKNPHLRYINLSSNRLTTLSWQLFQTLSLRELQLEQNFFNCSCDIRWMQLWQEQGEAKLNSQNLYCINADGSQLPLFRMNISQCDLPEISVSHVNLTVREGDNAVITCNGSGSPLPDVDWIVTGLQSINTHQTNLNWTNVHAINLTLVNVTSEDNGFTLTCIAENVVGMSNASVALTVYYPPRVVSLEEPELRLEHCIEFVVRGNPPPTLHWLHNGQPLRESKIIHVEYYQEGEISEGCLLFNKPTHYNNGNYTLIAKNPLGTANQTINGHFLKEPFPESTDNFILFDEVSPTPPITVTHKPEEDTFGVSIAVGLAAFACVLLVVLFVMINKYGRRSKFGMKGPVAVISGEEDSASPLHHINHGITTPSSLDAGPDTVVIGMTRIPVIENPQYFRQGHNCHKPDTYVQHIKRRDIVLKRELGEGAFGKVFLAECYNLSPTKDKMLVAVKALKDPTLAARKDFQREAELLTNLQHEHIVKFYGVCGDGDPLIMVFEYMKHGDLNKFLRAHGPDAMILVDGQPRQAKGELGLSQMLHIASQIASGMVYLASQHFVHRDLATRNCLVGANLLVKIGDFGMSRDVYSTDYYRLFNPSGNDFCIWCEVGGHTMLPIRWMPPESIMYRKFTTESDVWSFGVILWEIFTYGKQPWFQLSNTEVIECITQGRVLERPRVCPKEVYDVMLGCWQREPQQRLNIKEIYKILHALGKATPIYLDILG
# cond: at 1 µM
result_type: inhibition (%)
Report the figure in % without appending any unit label.

smiles: CCS(=O)(=O)c1ccc(OC)c(Nc2ncc(-c3cccc(-c4ccccc4F)c3)o2)c1
unit_label: %
value_measured: 39.5
--
smiles: COc1ccc2cc(-c3c(-c4ccncc4)nc(-c4ccc(S(C)(=O)=O)cc4C)n3C)ccc2c1
unit_label: %
value_measured: 4.11

// next item, inhibition requested
For the compound `O=C(Nc1ccc(Oc2ccc3[nH]c(NC(=O)c4ccccc4)nc3c2)cc1)Nc1cc(C(F)(F)F)ccc1F` , what inhibition is on record?
41

* * *

Reported inhibition is given for each of the following compounds.
# system_tested: SRSF protein kinase 1 (Homo sapiens);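 further: reported values are mean percent inhibition of SRPK1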
# cond: at 1 µM
The reply should contain only the number, in %.

smiles: COc1ccc2cc(-c3c(-c4ccncc4)nc(-c4ccc(S(C)(=O)=O)cc4C)n3C)ccc2c1
unit_label: %
inhibition: -2.87
--
smiles: Cc1ccc(NC(=O)c2ccoc2)cc1-c1ccc(C(=O)NCC2CC2)cc1
unit_label: %
inhibition: -0.85
--
smiles: Fc1ccc(-c2nc3n(c2-c2ccncc2)CCS3)cc1
unit_label: %
inhibition: -4.38
--
smiles: Cc1nnc(-c2ccc(C)c(-c3ccc(C(=O)NCc4ccc(Cl)cc4)cc3)c2)o1
unit_label: %
inhibition: -1.82

Attention now shifts to the item below.
Sample `FC(F)(F)c1cccc(Nc2nccc(-c3cnn4nc(-c5ccccc5)ccc34)n2)c1` — what was its inhibition?
-0.92

* * *

# system_tested: MAP kinase-activated protein kinase 3 (Homo sapiens) (UniProt Q16644)
# Sequence (Q16644 whole entry, looked up): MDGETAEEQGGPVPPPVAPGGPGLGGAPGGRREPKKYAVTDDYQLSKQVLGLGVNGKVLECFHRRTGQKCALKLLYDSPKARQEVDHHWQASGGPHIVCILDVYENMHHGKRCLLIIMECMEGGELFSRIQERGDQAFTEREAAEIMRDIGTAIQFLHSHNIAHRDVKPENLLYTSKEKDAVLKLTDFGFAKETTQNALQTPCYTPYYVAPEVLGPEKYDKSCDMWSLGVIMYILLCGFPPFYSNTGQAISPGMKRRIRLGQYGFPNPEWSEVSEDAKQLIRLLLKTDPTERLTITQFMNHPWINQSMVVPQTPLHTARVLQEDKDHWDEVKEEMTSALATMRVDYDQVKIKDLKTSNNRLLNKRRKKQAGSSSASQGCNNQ
# cond: at 0.1 µM
# Description: GSK_PKIS: MAPKAPK3 mean inhibition at 0.1 uM [Nanosyn]
result_type: inhibition
Provide the measurement as a number trailed by its unit.

The examples below pair each entry with its known result.
smiles: COc1cc2ncn(-c3cc(OCCc4ccccc4)c(C(N)=O)s3)c2cc1OC
value_measured: 2.1%

smiles: Fc1ccc(-c2ncn(C3CCNCC3)c2-c2ccnc(Oc3ccc(F)c(F)c3)n2)cc1
value_measured: 18.5%

smiles: COc1cc(N2CCN(C(C)C)CC2)ccc1Nc1nc(Nc2ccc(F)cc2C(=O)NC[C@@H](O)CO)c2cc[nH]c2n1
value_measured: 4.35%

smiles: NS(=O)(=O)c1ccc(N/N=C2\C(=O)Nc3ccc(C(=O)NCCCn4ccnc4)cc32)cc1
value_measured: 9.93%

Requested read-out: inhibition. Entry: `COC(=O)Nc1nc2ccc(Sc3ccc(NC(=O)Nc4cc(C(F)(F)F)ccc4F)cc3)cc2[nH]1`
4.28%

Which measured inhibition value corresponds to `NS(=O)(=O)c1ccc(Nc2cc(-c3ccc(O)c(F)c3)n[nH]2)cc1` ?
-0.95%

Looking for the measured inhibition of `C/C(Nc1ccc(S(N)(=O)=O)cc1)=C1/C(=O)Nc2ccccc21` , can you help?
-0.79%

Report inhibition for `CN1CCN(CCCNc2nc3ccc(Oc4ccc(NC(=O)Nc5cc(C(F)(F)F)ccc5F)cc4)cc3[nH]2)CC1` please.
3.34%

Request the reported inhibition associated with `CS(=O)(=O)CCNCc1ccc(-c2ccc3ncnc(Nc4ccc(OCc5ccccc5)c(Br)c4)c3c2)o1`
3.07%

* * *

# system_tested: Tyrosine-protein kinase JAK1 (Homo sapiens)
# cond: at 1 µM
result_type: inhibition (%)
State just the number; it will be interpreted in %.

compound: O=C1NC(=O)C(c2cccc(Cl)c2)=C1Nc1ccc(Cl)c(C(=O)O)c1
system_tested: Tyrosine-protein kinase JAK1 (Homo sapiens)
result_type: inhibition
value_measured: 13.7

Can you look up inhibition on Tyrosine-protein kinase JAK1 (Homo sapiens) for `CNC(=O)c1cncc(/C=C/c2c(C)cccc2C)c1` ?
-1.32

// fetch Tyrosine-protein kinase JAK1 (Homo sapiens) inhibition for `Fc1ccc(-c2ncn(C3CCNCC3)c2-c2ccnc(Oc3ccc(Oc4ccccc4)cc3)n2)cc1`
1.84

Missing value: inhibition, Tyrosine-protein kinase JAK1 (Homo sapiens), entry `COc1cc2ncn(-c3cc(OCc4cccs4)c(C(N)=O)s3)c2cc1OC` . Fill in?
19.9

Give the reported inhibition for `O=C(Nc1n[nH]c2cc(-c3ccccc3)ccc12)C1CC1` (system: Tyrosine-protein kinase JAK1 (Homo sapiens)).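 Further: each value is a mean inhibition of JAK1.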
7.69

Identify the measured inhibition of COc1ccc2cc(-c3c(-c4ccncc4)nc(-c4ccc([S+](C)[O-])cc4C)n3C)ccc2c1 (stereo unspecified) for Tyrosine-protein kinase JAK1 (Homo sapiens).
4.21

* * *

# reported inhibition; entries follow
# system_tested: Casein kinase I isoform gamma-1 (Homo sapiens) (UniProt Q9HCP0)
# Sequence (Q9HCP0 whole entry, looked up, canonical isoform): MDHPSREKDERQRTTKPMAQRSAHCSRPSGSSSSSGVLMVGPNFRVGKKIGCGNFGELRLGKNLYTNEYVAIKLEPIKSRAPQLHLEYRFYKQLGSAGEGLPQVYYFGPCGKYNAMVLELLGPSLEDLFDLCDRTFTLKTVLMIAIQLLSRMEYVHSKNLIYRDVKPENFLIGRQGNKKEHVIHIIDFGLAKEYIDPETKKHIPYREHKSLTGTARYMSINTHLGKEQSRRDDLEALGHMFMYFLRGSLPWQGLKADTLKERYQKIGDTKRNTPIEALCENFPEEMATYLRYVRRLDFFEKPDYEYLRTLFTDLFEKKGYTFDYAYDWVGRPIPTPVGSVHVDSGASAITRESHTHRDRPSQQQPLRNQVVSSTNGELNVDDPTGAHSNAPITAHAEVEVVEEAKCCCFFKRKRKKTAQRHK
# cond: at 0.1 µM
Quick reminder: number only, in %, skip the unit.

Before answering, review these 6 worked examples.
molecule: NS(=O)(=O)c1ccc(N/N=C2\C(=O)Nc3ccc(-c4cnco4)cc32)cc1
value_measured: -2.5
--
molecule: N#Cc1ccc(Oc2nccc(-c3c(-c4ccc(F)cc4)ncn3C3CCNCC3)n2)cc1
value_measured: 3.79
--
molecule: CCN(CC)Cc1ccc(Nc2nccc(-c3cnn4ncccc34)n2)cc1
value_measured: 2.36
--
molecule: C[C@@H](Oc1cc(-n2cnc3ccc(OCC4CCN(C)CC4)cc32)sc1C(N)=O)c1ccccc1Cl
value_measured: 5.29
--
molecule: COc1ccc(C2=C(N3CCc4ccccc43)C(=O)NC2=O)cc1
value_measured: 3.77
--
molecule: COc1cccc(/C=N/Nc2ncnc3c2cnn3-c2cccc(OC)c2)c1
value_measured: 2.82

Report inhibition for `CCS(=O)(=O)c1ccc(OC)c(Nc2ncc(-c3cccc(-c4ccccc4F)c3)o2)c1` tested on Casein kinase I isoform gamma-1 (Homo sapiens) (UniProt Q9HCP0).
0.32

Record COc1ccc2cc(-c3c(-c4ccncc4)nc(-c4ccc([S+](C)[O-])cc4C)n3C)ccc2c1 (stereo not drawn) : what is its inhibition with Casein kinase I isoform gamma-1 (Homo sapiens) (UniProt Q9HCP0)?
-0.99

What reported inhibition corresponds to `O=C1NC(=O)C(c2cccc(Cl)c2)=C1Nc1ccc(Cl)c(C(=O)O)c1` on Casein kinase I isoform gamma-1 (Homo sapiens) (UniProt Q9HCP0)?
2.32

Fill in the recorded inhibition for this molecule, with Casein kinase I isoform gamma-1 (Homo sapiens) (UniProt Q9HCP0) as test system: `Fc1ccc(-c2ncn(C3CCNCC3)c2-c2ccnc(Oc3ccc(F)c(F)c3)n2)cc1`
0.31

Please tell me: inhibition of `CCc1nccc2c1nc(-c1nonc1N)n2CC` , system Casein kinase I isoform gamma-1 (Homo sapiens) (UniProt Q9HCP0)?
0.76

Param readout = inhibition; param system = Casein kinase I isoform gamma-1 (Homo sapiens) (UniProt Q9HCP0); param query = `COc1ccc(-c2ccc3c(NC(=O)C4CC4)n[nH]c3n2)cc1` ; response: value
1.84

Form: Entry = `O=C(Nc1n[nH]c2nc(-c3ccc(O)cc3)c(Br)cc12)C1CC1` | System = Casein kinase I isoform gamma-1 (Homo sapiens) (UniProt Q9HCP0) | inhibition = ____
4.64

Lab note: need inhibition with Casein kinase I isoform gamma-1 (Homo sapiens) (UniProt Q9HCP0) for entry `Fc1ccc(-c2ncn(CCCN3CCOCC3)c2-c2ccncc2)cc1` , please look it up.
0.8

Identify the measured inhibition of `COc1cc2ncn(-c3cc(OCc4cccs4)c(C(N)=O)s3)c2cc1OC` for Casein kinase I isoform gamma-1 (Homo sapiens) (UniProt Q9HCP0).
-0.26

Test system Casein kinase I isoform gamma-1 (Homo sapiens) (UniProt Q9HCP0); read-out inhibition; what value for `NC(=O)c1ccc(Oc2nccc(-c3c(-c4ccc(F)cc4)ncn3C3CCNCC3)n2)cc1` ?
5.2

I'm curious: which inhibition was measured for `COc1cc(C)c(N(C)C(=O)CN(C)C)cc1Nc1nc(Nc2cccc(F)c2C(N)=O)c2cc[nH]c2n1` tested on Casein kinase I isoform gamma-1 (Homo sapiens) (UniProt Q9HCP0)?;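 further: reported as mean inhibition, part of GSK PKIS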
-0.75

Field: inhibition (Casein kinase I isoform gamma-1 (Homo sapiens) (UniProt Q9HCP0)). Entry: `CS(=O)(=O)CCNCc1cc(-c2cc3c(Nc4ccc(OCc5cccc(F)c5)c(Cl)c4)ncnc3s2)cs1`
3.81

* * *

# inhibition listing for each entry below
# system_tested: Inhibitor of nuclear factor kappa-B kinase subunit epsilon (Homo sapiens) (UniProt Q14164);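 further: mean inhibition of IKKε reported, from the GSK PKIS dataset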
# Sequence (Q14164 whole entry): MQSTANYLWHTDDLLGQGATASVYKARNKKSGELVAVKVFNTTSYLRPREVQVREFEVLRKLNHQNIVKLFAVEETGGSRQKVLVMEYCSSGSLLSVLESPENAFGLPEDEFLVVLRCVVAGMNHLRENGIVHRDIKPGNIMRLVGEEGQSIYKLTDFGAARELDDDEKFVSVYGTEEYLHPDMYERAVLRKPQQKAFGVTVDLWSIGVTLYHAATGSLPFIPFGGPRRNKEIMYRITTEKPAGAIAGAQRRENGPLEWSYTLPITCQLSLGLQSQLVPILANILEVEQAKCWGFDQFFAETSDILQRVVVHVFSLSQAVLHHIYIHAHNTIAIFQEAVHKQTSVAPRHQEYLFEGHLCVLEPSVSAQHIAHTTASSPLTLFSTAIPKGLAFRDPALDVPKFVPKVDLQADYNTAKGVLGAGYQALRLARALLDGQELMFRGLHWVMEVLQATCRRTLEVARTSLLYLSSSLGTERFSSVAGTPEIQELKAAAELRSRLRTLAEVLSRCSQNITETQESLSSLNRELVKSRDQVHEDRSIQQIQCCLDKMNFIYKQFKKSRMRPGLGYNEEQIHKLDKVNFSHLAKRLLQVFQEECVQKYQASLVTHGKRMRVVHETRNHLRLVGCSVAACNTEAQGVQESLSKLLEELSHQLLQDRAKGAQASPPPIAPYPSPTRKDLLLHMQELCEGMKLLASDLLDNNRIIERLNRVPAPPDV
# cond: at 0.1 µM
Field: numeric (%). Do not append units.

Answered cases to consult:
smiles: COc1cc2ncn(-c3cc(OCc4cccs4)c(C(N)=O)s3)c2cc1OC
inhibition [%]: 7.67
//
smiles: COc1cc(C)c(N(C)C(=O)CN(C)C)cc1Nc1nc(Nc2cccc(F)c2C(N)=O)c2cc[nH]c2n1
inhibition [%]: 1.26
//
smiles: CCc1cccc(CC)c1/C=C/c1cncc(C(=O)NC)c1
inhibition [%]: 1.34
//
smiles: N#Cc1ccc(Oc2nccc(-c3c(-c4ccc(F)cc4)ncn3C3CCNCC3)n2)cc1
inhibition [%]: 9.95
//
smiles: CNC(=O)c1cncc(/C=C/c2c(C)cccc2C)c1
inhibition [%]: 0.37
//
smiles: c1ccc(Oc2ccc(Nc3ncc(-c4ccccc4)o3)cc2)cc1
inhibition [%]: 1.29

Would you kindly share the measured inhibition for `COc1ccc2ncn(-c3cc(O[C@H](C)c4ccccc4Cl)c(C(N)=O)s3)c2c1` ?
5.23
